# System: CP335
# assay_remarks: qHTS profiling for inhibitors of Plasmodium falciparum proliferation (AID 504749); further: nearly all actives have a fitted effect of over 60% in size
# test_context: P. falciparum in erythrocytes, SYBR Green DNA, 72 h; series mostly up to 28.7 µM
Results filed as inconclusive are left out. The source made the active and inactive calls. The call rests on the fitted dose curve; in most records, active means well fitted inhibition curve with a large enough effect; inconclusive means small, poorly fitted or top-dose-only effect; inactive means flat fitted curve, though single readings scatter.
readout_name: outcome

{"molecule": "C[C@@H]1CC2C3CCC4=CC(=O)C=C[C@]4(C)[C@@]3(F)[C@@H](O)C[C@]2(C)[C@@]1(O)C(=O)COC(=O)c1cccc(S(=O)(=O)O)c1 (some centres not stated)", "outcome": "inactive"}
{"molecule": "NC(=O)NC(CCC(=O)O)C(=O)O (configuration not stated)", "outcome": "inactive"}
{"molecule": "CC(=O)N[C@H]1[C@H](O[C@@H]2c3ccc(c(Cl)c3)Oc3cc4cc(c3O[C@@H]3O[C@H](CO)[C@@H](O)[C@H](O)C3C)Oc3ccc(cc3Cl)C[C@H]3NC(=O)[C@@H](N)c5ccc(O)c(c5)Oc5cc(O)cc(c5)[C@H](NC3=O)C(=O)N[C@H]4C(=O)N[C@H]3C(=O)N[C@@H]2C(=O)N[C@@H](C(=O)O)c2cc(O)cc(O[C@H]4O[C@H](CO)[C@@H](O)C(O)[C@@H]4O)c2-c2cc3ccc2O)O[C@H](CO)[C@@H](O)[C@@H]1O (some centres not stated)", "outcome": "inactive"}
{"molecule": "C[C@H](O)[C@@H]1C(=O)N2C(C(=O)O)=C(SCCN=CN)C[C@@H]12", "outcome": "inactive"}
{"molecule": "CC1(C)OC[C@@H]2O[C@@]3(C(=O)O)OC(C)(C)O[C@@H]3[C@@H]2O1", "outcome": "inactive"}
{"molecule": "COC(=O)C1C2CC3c4[nH]c5cc(OC)ccc5c4CCN3CC2CC(OC)C1OC (configuration not stated)", "outcome": "inactive"}

Task: Which outcome reading was recorded for the molecule Nc1nc(F)nc2c1ncn2[C@@H]1O[C@H](CO)[C@@H](O)[C@H]1O ?
Output: inactive
